Value source: PubChem BioAssay (NCI)

# Tested on: EKVX NSCLC
# assay method text: NCI tumour cell line growth inhibition, 48 h
// values below are reported GI50

[
  {
    "sample smiles": "Oc1c(CN2CCOCC2)cc(COCc2ccccc2)c2cccnc12",
    "GI50": "2880 nM"
  },
  {
    "sample smiles": "CN(C)CCNc1nc2ccccc2c2c(=O)c3ccccc3sc12",
    "GI50": "1660 nM"
  },
  {
    "sample smiles": "CCc1nc(-n2c(-c3ccccc3)nc3ccccc3c2=O)nc(N)c1-c1ccc(Cl)cc1",
    "GI50": "> 100000 nM"
  },
  {
    "sample smiles": "O=C(CCl)Nc1cc(O)c2c(c1)C(=O)c1cccc(O)c1C2=O",
    "GI50": "1770 nM"
  },
  {
    "sample smiles": "Cc1ccc2c(c1)C(=O)c1c-2n(CCCN=[N+]=[N-])c(=O)c2cc([N+](=O)[O-])ccc12",
    "GI50": "> 100000 nM"
  }
]
